List of half-life at 1 µM values.
TEST_DESCRIPTION: Metabolic stability in pooled CD-1 mouse liver microsomes assessed as half life at 1 uM incubated for 60 mins in presence of NADPH by LC-MS/MS analysis
Type: ADME, Microsome

{"columns": ["COMPOUND", "half-life at 1 µM / min"],
 "data": [
  ["O=[N+]([O-])c1ccccc1-c1ccc(CN2CCCC2c2cccc(N3CCCC3)c2)o1 (centres undefined)", 5.61],
  ["Cc1cc([N+](=O)[O-])ccc1-c1ccc(CN2CCCC2c2cccc(N(C)C)c2)o1 (centres undefined)", 4.2],
  ["COc1ccc(C2CCCN2Cc2ccc(-c3ccccc3[N+](=O)[O-])o2)cc1 (centres undefined)", 0.73],
  ["Cc1cc([N+](=O)[O-])ccc1-c1ccc(CN2CCCC2c2ccc(N(C)C)cc2)o1 (centres undefined)", 3.64],
  ["O=[N+]([O-])c1ccccc1-c1ccc(CN2CCCC2c2ccc(N3CCCC3)cc2)o1 (centres undefined)", 2.67],
  ["CN(C)c1ccc(C2CCCN2Cc2ccc(-c3ccccc3[N+](=O)[O-])o2)cc1 (centres undefined)", 0.95],
  ["Cc1ccc([N+](=O)[O-])c(-c2ccc(CN3CCCC3c3ccc(N(C)C)cc3)o2)c1 (centres undefined)", 0.89],
  ["CN(C)c1cccc(C2CCCN2Cc2ccc(-c3ccccc3[N+](=O)[O-])o2)c1 (centres undefined)", 0.78],
  ["O=[N+]([O-])c1ccccc1-c1ccc(CN2CCCC2c2ccc(N3CCCCC3)cc2)o1 (centres undefined)", 1.29]
]}

----------
TEST_DESCRIPTION: Metabolic stability in pooled human liver microsomes assessed as half life at 1 uM incubated for 60 mins in presence of NADPH by LC-MS/MS analysis
Type: ADME, Microsome
Response field label: string, one of MET (half-life at 1 µM strictly below 2 min) or NOT MET.

{"columns": ["MOLECULE", "CLASSIFICATION"],
 "data": [
  ["O=[N+]([O-])c1ccccc1-c1ccc(CN2CCCC2c2ccc(N3CCCC3)cc2)o1 (stereo not drawn)", "NOT MET"],
  ["O=[N+]([O-])c1ccccc1-c1ccc(CN2CCCC2c2cccc(N3CCCC3)c2)o1 (stereo not drawn)", "NOT MET"],
  ["Cc1cc([N+](=O)[O-])ccc1-c1ccc(CN2CCCC2c2cccc(N(C)C)c2)o1 (stereo not drawn)", "NOT MET"],
  ["CN(C)c1cccc(C2CCCN2Cc2ccc(-c3ccccc3[N+](=O)[O-])o2)c1 (stereo not drawn)", "MET"],
  ["COc1ccc(C2CCCN2Cc2ccc(-c3ccccc3[N+](=O)[O-])o2)cc1 (stereo not drawn)", "MET"],
  ["Cc1cc([N+](=O)[O-])ccc1-c1ccc(CN2CCCC2c2ccc(N(C)C)cc2)o1 (stereo not drawn)", "NOT MET"],
  ["CN(C)c1ccc(C2CCCN2Cc2ccc(-c3ccccc3[N+](=O)[O-])o2)cc1 (stereo not drawn)", "NOT MET"]
]}

Hey, just so you know, these numbers are from ChEMBL document CHEMBL5107998.
